test: Toxicity index, ratio of TC50 for human CEM174 cells to EC50 for Simian immunodeficiency virus; type: cell-based; details: read-out: TI
With a cut-off of 20, any selectivity ratio strictly below it is called yes; any selectivity ratio meeting it or above is called no.

// below: answered compounds
• O=S(=O)(Nc1nccs1)c1ccc(NC(=S)Nc2ccc(Cl)cc2)cc1 = yes
• Cc1cc(NS(=O)(=O)c2ccc(NC(=S)Nc3cccc(Cl)c3)cc2)no1 = no

Could you please tell me whether selectivity ratio recorded for COc1ccc(NC(=S)Nc2ccc(S(=O)(=O)Nc3cc(C)on3)cc2)cc1 is less than 20?
no

Field: below-cutoff. Rule: recorded selectivity ratio strictly less than 20. Subject: O=C1OCc2ccc(NC(=S)Nc3cccc(F)c3)cc21
yes

Regarding CCN(CC)c1nc(C)c([N+](=O)[O-])c(NC(=S)Nc2cccc(Br)c2)n1 , kindly confirm whether its selectivity ratio is beneath 20.
yes

Would you kindly verify if selectivity ratio of Cc1cc(NS(=O)(=O)c2ccc(NC(=S)Nc3cccc(Br)c3)cc2)no1 is strictly less than 20?
no

Lab note: confirm whether the reported selectivity ratio for this compound is below 20, equality not counting. compound: CCN(CC)c1nc(C)c([N+](=O)[O-])c(NC(=S)Nc2cccc(F)c2)n1
no

Threshold test, selectivity ratio < 20: Cc1cc(NS(=O)(=O)c2ccc(NC(=S)Nc3cccc(F)c3)cc2)no1
yes

----------
target: UniProt:P62937
Sequence (P62937 whole entry): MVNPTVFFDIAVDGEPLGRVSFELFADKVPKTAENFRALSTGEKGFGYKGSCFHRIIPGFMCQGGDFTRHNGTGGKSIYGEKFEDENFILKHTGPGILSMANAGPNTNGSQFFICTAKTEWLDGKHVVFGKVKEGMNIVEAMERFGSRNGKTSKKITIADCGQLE
Assay readout: Kd
Record the result as a number with its unit.

Item CCN(CC)c1nc(C)cc(NC(=S)Nc2cccc(Br)c2)n1 with UniProt:P62937 - Kd?
200 µM

----------
Here the recorded CC50 is given for each entry.
experiment: Cytotoxicity against Homo sapiens (human) CEM174 by MTT assay; details: CEM174 cells, read-out: TC50 (the source's name)

* CCN(CC)c1nc(C)c([N+](=O)[O-])c(NC(=S)Nc2cccc(F)c2)n1 | > 100 µM
* CCN(CC)c1nc(C)c([N+](=O)[O-])c(NC(=S)Nc2ccc(Cl)cc2)n1 | > 100 µM

Now for another entry.
// query CC50 value for entry CCN(CC)c1nc(C)c([N+](=O)[O-])c(NC(=S)Nc2ccc(C)c(Cl)c2)n1
> 100 µM
